test system: SN12C renal; assay: NCI-60 one-dose screen, 48 h (100 = growth as untreated, 0 = no growth, -100 = all killed); settings: 10 µM unless noted
This is part of a sample that, as a whole, favours compounds with a hit. Of some 83,000 tested, about 20% had one in any assay.
endpoint: growth (%)
Give your result in % as a bare value.

Note to self: growth recorded for O=c1[nH]c2ccccc2cc1CSc1ccccc1Nc1nccc(-c2ccc3c(c2)OCO3)n1 was 57

The recorded growth for entry COc1ccc(NC(=O)Cn2c(/C=C/c3ccc([N+](=O)[O-])cc3)nc3ccccc3c2=O)cc1 equals 62.3

For record O=C1Nc2cc(-c3ccc(NS(=O)(=O)c4ccc([N+](=O)[O-])cc4)cc3)ccc2/C1=C/c1ccc[nH]1 the listed growth is -17.7

growth reading for C/C(=N/O)c1ccc(NC(=O)CSc2nnc(-c3ccc4nc(-c5ccc(Cl)cc5)[nH]c4c3)o2)cc1 : 28.8

The recorded growth for CC1=C(C(=O)Nc2ccccc2)C(c2cccc(Cl)c2Cl)n2c(nc3ccccc32)N1 (configuration not stated) is 53.4

Per the record, Cc1cc(C(NC(=O)C2CC3(CC(Nc4cccc5c4C(=O)N(C4CCC(=O)NC4=O)C5=O)C3)C2)c2ccc3c(c2)OC(F)(F)O3)c(O)c2ncccc12 (configuration not stated) has growth of 14.1

The reported growth of the compound CC(C)(C)OC(=O)N1CCC2(CC1)Oc1ccccc1[C@H]1CC(c3ccc(Br)cc3)=NN12 was 71.2

* * *

test system: SW-620 colon; experiment: NCI-60 one-dose screen, 48 h (100 = growth as untreated, 0 = no growth, -100 = all killed); settings: 10 µM unless noted
This is part of a sample that, as a whole, favours compounds with a hit. Of some 83,000 tested, about 20% had one in any assay.
Provide the reported growth of each item.
Answer format: numeric, % implied, no suffix.

Just so you know, measured growth for CN(C)CCCNC(=S)Nc1ccc(/C=C/c2ccc(Cl)cc2)cc1 came out at -41.7

Note to self: growth recorded for COc1ccc(C2=Nc3c(N)nc(N)nc3NC(c3ccc(Oc4nc(Nc5ccc(F)cc5)nc(N(C)C)n4)c(OC)c3)C2)cc1 (stereo unspecified) was 76.6

// field: growth; key: Cn1cc(-c2cc3nc(-c4cn(C)c5ncc(Br)cc45)cc(N)n3n2)c2cc(F)ccc21 ; value = 26.6

Lookup result for CN1C(=O)C(O)(CC(=O)c2cc3ccccc3oc2=O)c2ccccc21 (stereo unspecified) ; measured growth: 101

Record summary for Cc1nc2sccn2c1-c1nnc(SCC(C)C)o1 : reported growth = 97.6

For CCC(=O)c1c2c(c3ccc4c5ccccc5ccc4n13)C(=O)c1ccccc1C2=O the compound record lists growth as 88.5

The compound listed as N/C(=N\c1nc2ccccc2s1)NC(=O)Nc1ccccc1F has a reported growth of 43

Recorded growth (compound COc1cc(C2C(C(=O)OCc3ccccc3)=C(C)Nc3nc4ccccc4n32)cc(OC)c1OC (stereo unspecified) ): 31.4

Looking up COC(=O)c1c(C(=O)OC)c2ccc3c4ccccc4ccc3n2c1C(=O)OC , I see its growth listed as 111

So for COc1ccc(NC(=O)Cn2c(/C=C/c3ccc([N+](=O)[O-])cc3)nc3ccccc3c2=O)cc1 , the logged growth turned out to be 70.5

Reported growth of COc1ccc(-c2nc3ccc(-c4nnc(SCc5ccccc5)o4)cc3[nH]2)cc1OC : 15.9

* * *

test system: EKVX NSCLC; assay: NCI-60 one-dose screen, 48 h (100 = growth as untreated, 0 = no growth, -100 = all killed); conditions: 10 µM unless noted
About 83,000 compounds went through this panel and 20% of them were active in at least one assay; those are over-represented in the sample as a whole.
Consider the cut-off 80%. If the recorded growth is strictly smaller, the label is TRUE; if not, the label is FALSE.

Could you please tell me whether growth recorded for COc1ccc(-c2cc(C(=O)Oc3ccc(C=O)cc3OC)nn2-c2ccc(S(C)(=O)=O)cc2)cc1 is less than 80%?
FALSE

Is 80% strictly greater than the molecule's reported growth? molecule: COc1cc(/C=C/C(=O)c2cnn(-c3cc(=O)[nH]c4ccc(Br)cc34)c2C)cc(OC)c1OC
TRUE

Below 80% on growth? Entry Nc1nn2c(-c3cc4cc(Br)ccc4oc3=O)ccnc2c1N=Nc1ccc(S(N)(=O)=O)cc1
FALSE

Input CN(C)c1nc(NCCNS(=O)(=O)c2ccc(C3=Nc4c(N)nc(N)nc4NC(c4ccc(C(F)(F)F)cc4)C3)cc2)nc(N2CCOCC2)n1 (stereo not given) ; condition: growth strictly below 80%. Does it hold?
TRUE

Dear colleague, could you confirm whether growth of NC(=O)c1ccc(-c2ccc3ncnc(N4CCc5cc(F)c(Cl)cc54)c3c2)cn1 falls below 80%? Thanks.
TRUE

Hi there! Is growth for COc1ccc2oc(=O)c(-c3csc(N/N=C(\C)c4cc(OC)c(OC)c(OC)c4)n3)cc2c1 below 80%, do you know?
FALSE

Problem: For the molecule Clc1ccc(Nc2nnc(-c3c[nH]c4ccccc34)o2)cc1 , is growth under 80%?
TRUE

Problem: For the molecule Cc1cc(C)c2[nH]c(=O)c(C(c3nnnn3Cc3ccc4c(c3)OCO4)N3CCN(C)CC3)cc2c1 (stereo not given) , is growth under 80%?
FALSE

* * *

system: LOX IMVI melanoma; experiment: NCI-60 one-dose screen, 48 h; settings: 10 µM unless noted
This is part of a sample that, as a whole, favours compounds with a hit. Of some 83,000 tested, about 20% had one in any assay. Active and inactive are the calls of the source. The calls were made as follows: active = growth percent below 10; inactive = the rest.
Answer with one of the outcomes given here: 1 for active, 0 for inactive

Called result for COc1cc(CNC(=O)[C@]23CCC(C)(C)CC2C2=CCC4[C@@]5(C)CCC(OC(C)=O)C(C)(C)C5CC[C@@]4(C)[C@]2(C)CC3)ccc1OCc1cn(-c2ccc(Cl)cc2Cl)nn1 (some centres not stated)
0

Hi team, can someone confirm the assay call for O=C(CSc1nnc(-c2ccc(-c3nc4ccccc4[nH]3)cc2)o1)Nc1ccc(Cl)cc1 ?
1

Could you please tell me the result logged for COc1cc2cc(C(=O)N3C[C@@H](CCl)c4c3cc(OC(=O)N(CCC(=O)N3CCN(C)CC3)C3CCCCC3)c3ccccc43)[nH]c2c(OC)c1OC in this assay?
1

Outcome? Cc1nc2sccn2c1-c1nnc(SCc2ccccc2)o1
0

Per the records of this test, what outcome belongs to Nc1nnc(-c2cncc(Br)c2)c(-c2c[nH]c3ccc(Br)cc23)n1 ?
0

What classification did CCCCCCCCc1ccc(C(=O)Nc2ccc(C)c(OP(=O)(O)O)c2)cc1 end up with in this test?
0

Recorded test call requested for COc1nc(N)ncc1-c1ccc2ncnc(N3CCc4cc(F)c(Cl)cc43)c2c1
0

* * *

test system: T-47D breast; experiment: NCI-60 one-dose screen, 48 h (100 = growth as untreated, 0 = no growth, -100 = all killed); details: 10 µM unless noted
This is part of a sample that, as a whole, favours compounds with a hit. Of some 83,000 tested, about 20% had one in any assay.
For each entry below, report its growth value.
Entry rule: numbers only, all in %.

growth reading for Cc1cccc(NCC(=O)N2CCN(c3ncnc4c3cnn4-c3ccccc3)CC2)c1 : 33.6

The recorded growth for COc1ccc(-c2cc(-c3cc(C(C)C)c(O)cc3C)nn2-c2ccc(S(N)(=O)=O)cc2)cc1 is 12.7

Briefly, growth measured for O=C(c1ccc(O)cc1)C1[C@H](c2ccc(Cl)cc2)[C@@H](c2ccccc2)NC12C(=O)Nc1ccc(Br)cc12 (stereo partly drawn) : 2.46

* * *

Tested on: SF-268 CNS
Assay: NCI-60 one-dose screen, 48 h
Settings: 10 µM unless noted
Protocol: Cells are grown in 96 well plates and exposed to the test compound for 48 hours. Compounds are tested at a single concentration, which is 10^-5 M for most compounds. The reported endpoint is percent growth (GI% or GIPRCNT), where numbers from 0 - 100% represent growth inhibition, and numbers from -100% - 0 represent cell death. For example, a value of 40 represents 60% growth inhibition. A value of 0 means no net growth occurred over the course of the experiment. […]
The panel holds about 83,000 compounds, 20% with a hit somewhere; the sample as a whole holds those more often. Active and inactive are the calls of the source. Rule for the calls: active = growth percent below 10; inactive = the rest.
The reply should be one of these categories: active, inactive

Name the outcome recorded for O=C(OCCOCCO)N(c1cccc(Br)c1)c1nc(SCCN2CCOCC2)nc2c1cnn2CC(Cl)c1ccc(Br)cc1 (centres undefined) in the assay.
active

I would be grateful if you could indicate the recorded call for COc1ccccc1NC(=O)N/N=C/c1c[nH]c2ccccc12 .
inactive

What call does the record list for Cn1ncc2c(N)nc(Oc3ccccc3-c3ccccc3)nc21 ?
inactive

Kindly provide the recorded test outcome for the following compound: Cc1ccc(C(=O)Nc2cc(-c3ccncc3)cc(C(F)(F)F)c2)cc1C#Cc1cnc2cccnn12
inactive

Which outcome did this test record for the compound COc1ccc2oc(=O)c(-c3csc(N/N=C(\C)c4cc(OC)c(OC)c(OC)c4)n3)cc2c1 ?
inactive

# lookup: test call for CCCCCCCOc1ccc(S(=O)(=O)Nc2ccc(C)c(F)c2C(=O)O)cc1
inactive

Just curious, what result did C#CCCCNCCNc1ccnc2cc(Cl)ccc12 get here?
inactive

Hi, do you know how COc1ccccc1Nc1nnc(-c2c[nH]c3ccccc23)o1 came out in this test?
inactive

Which outcome did this test record for the compound O=C(NNC(=S)NCCc1ccccc1)c1ccc(OCc2nc3ccc(Cl)cc3[nH]2)cc1 ?
inactive

Hi, do you know how O=C(NC(=S)N1CCN(c2ncnc3c2cnn3-c2ccccc2)CC1)c1ccc(F)cc1 came out in this test?
inactive

Identify the outcome logged in this assay for the compound shown: Cc1ccc(C2CC(c3ccc(NC(=O)Nc4ccccc4)cc3)=NN2c2ccc(S(C)(=O)=O)cc2)cc1 (centres undefined)
active

// outcome(item) with item = Fc1ccc(N2CC(Cn3c(C(F)(F)F)cc4c(Cl)ncnc43)C2)c(F)c1
active

What classification did Cn1cc(-c2cc(N)n3nc(-c4c[nH]c5ccccc45)cc3n2)c2cc(F)ccc21 end up with in this test?
inactive

How did this test come out for CCCCCCCCc1ccc(C(=O)Nc2ccc(C)c(OP(=O)(O)O)c2)cc1 ?
inactive

Per the records of this test, what outcome belongs to COc1ccc(NC(=O)CSc2nnc(-c3ccc(-c4nc5ccc(Cl)cc5[nH]4)cc3)o2)cc1 ?
inactive

Each compound tested received a call. Report the one for COc1ccc(-c2cc(-c3cc(OC)c(OC)c(OC)c3)[nH]c(=O)c2C#N)cc1 .
inactive

Give the logged outcome of this assay for the following compound: COc1ccc2c(c1)C(Sc1ccc(Cl)cc1)c1c(nc(N)c(C#N)c1N)O2 (centres undefined)
inactive

Tell me the assay call for COc1ccc2[nH]c(O)c(N=Nc3nc(-c4ccc(C#N)cc4)cs3)c2c1 please.
inactive

Answer briefly: the call reported for C=CCSc1nnc(-c2ccc(-c3nc4ccccc4[nH]3)cc2)o1 in this assay.
inactive

Hi, do you know how COc1cc2cc(C(=O)N3C[C@@H](CCl)c4c3cc(OC(=O)N(CCC(=O)N3CCN(C)CC3)C3CCCCC3)c3ccccc43)[nH]c2c(OC)c1OC came out in this test?
active

Any idea what this test logged for O=C(CSc1nnc(-c2ccc(-c3nc4ccccc4[nH]3)cc2)o1)Nc1ccc(Cl)cc1 ?
inactive

Entry Cc1ccc(-c2cc(-c3ccccc3)[nH]c(=O)c2C#N)cc1 : call = ?
inactive

Hey, what did the test say about C=CC(=O)Nc1ccc(C(=O)/C=C/c2ccc(N(C)C)cc2)c(O)c1 ?
inactive

Dear all, I need the recorded test outcome for CN1C(=O)C(O)(CC(=O)c2cc3ccccc3oc2=O)c2ccccc21 (centres undefined) , thank you.
inactive
